The following compounds are listed with their measured pIC50 values.
Target: UniProt:P14902
Assay: Assessment of human IDO-1 inhibitory activity in HEK cells (human IDO1/HEK293 cells, kynurenine read-out with Ehrlich reagent, absorbance 490 nm)
Assay type: cell-based
Set-up: expressed in transfected cells
Conditions: HEK Human IDO-1 cellular assay
pIC50: −log10 of the molar value. Where a name gives a salt, the structure may show the parent alone.

Sample records with pIC50:
CCC(CC(=O)O)c1ccc(N(CC(C)C)CC(C)C)c(NC(=O)Cc2ccc(C#N)cc2)c1 (single isomer, unassigned) [Example 1104]	> 8.30
COCC(CC(=O)O)c1ccc(N(CC(C)C)C2CCOCC2)c(NC(=O)Nc2ccc(OC)cc2F)c1 (single isomer, unassigned) [Example 1214]	< 7.30
CCC(CC(=O)O)c1ccc(N(CC2CC2)C2CCOCC2)c(NC(=O)Nc2ccc(C)cc2)c1 (single isomer, unassigned) [Example 695]	> 7.30

[Q] Report pIC50 under test system UniProt:P14902 for CCC(CC(=O)O)c1ccc(N(CC)C2CCCOC2)c(NC(=O)Nc2ccc(C)cc2)c1 (single isomer, unassigned) [Example 73 D3] .
[A] > 7.30

[Q] Report pIC50 under test system UniProt:P14902 for CCC(CC(=O)O)c1cc(F)c(N(CC(C)C)CC(C)C)c(NC(=O)Nc2cc(C(C)(C)C)on2)c1 (racemic) [Example 971, TFA] .
[A] < 7.30

[Q] Report pIC50 under test system UniProt:P14902 for CCC(CC(=O)O)c1ccc(N2C[C@@H](C)O[C@@H](C)C2)c(Nc2ccc3c(c2)OC(F)(F)O3)c1 (single isomer, unassigned) [Example 765] .
[A] > 7.30

---

The following molecules are listed with their measured pIC50 values.
Biological target: UniProt:P14902
Assay: Assessment of human IDO-1 inhibitory activity in HEK cells (human IDO1/HEK293 cells, kynurenine read-out with Ehrlich reagent, absorbance 490 nm)
Type: cell-based
Set-up: expressed in transfected cells
Conditions: HEK Human IDO-1 cellular assay
pIC50: −log10 of the molar value.

CC[C@H](CC(=O)O)c1ccc(N(CC)C2CCOCC2)c(Nc2ccc3nncn3c2)c1 (single isomer, unassigned)	< 7.30

[Q] Report pIC50 under test system UniProt:P14902 for CCOc1ncc(Nc2cc(C(C)CC(=O)O)ccc2N(CC(C)(C)O)C2CCCCC2)cn1 (single isomer, unassigned) [Example 54] .
[A] > 7.30

---

Target: UniProt P14902
Assay: Assessment of human IDO-1 inhibitory activity in Hela cells (Interferon-gamma stimulated HeLa cells, Ehrlich reagent, absorbance 490 nm)
Format: cell-based
Parameters: endogenous in cells; host or cells: HeLa cells stimulated with interferon-gamma
Conditions: Hela Human IDO-1 cellular assay
Measure: IC50

Sample records with IC50:
CCN(c1ccc([C@@H](COC)CC(=O)O)cc1Nc1ccc(Cl)cn1)C1CCOCC1 (single isomer, unassigned)	< 5 nM
COCC(CC(=O)O)c1ccc(N(C)C2CCOCC2)c(NC(=O)Nc2ccc(Cl)cc2F)c1 (single isomer, unassigned) [Example 879]	> 50 nM
CCN(c1ccc([C@@H](COC)CC(=O)O)cc1Nc1ncc(Cl)cn1)C1CCOCC1 (single isomer, unassigned)	< 50 nM

[Q] Using the record for CCN(c1ccc(C(CC(=O)O)C2CC2)cc1Nc1ccc(Cl)cc1)C1CCOCC1 (single isomer, unassigned) [Example 33 Enantiomer 1] , state its measured IC50.
[A] < 5 nM

[Q] Using the record for CCCN(c1ccc(C(COC)CC(=O)O)cc1Nc1ccc(F)cc1)C1CCS(=O)(=O)CC1 (single isomer, unassigned) , state its measured IC50.
[A] < 5 nM

[Q] Using the record for CCN(c1cc(F)c([C@H](COC)CC(=O)O)cc1Nc1ccc(C#N)cc1)C1CCOCC1 (single isomer, unassigned) , state its measured IC50.
[A] < 5 nM

---

The following molecules are listed with their measured IC50 values.
Target: UniProt P14902
Test: Assessment of human IDO-1 inhibitory activity in HEK cells (human IDO1/HEK293 cells, kynurenine read-out with Ehrlich reagent, absorbance 490 nm)
Format: cell-based
Design: expressed in transfected cells
Conditions: HEK Human IDO-1 cellular assay

CCc1ccc(Nc2cc([C@H](CC)CC(=O)O)ccc2N(CC)C2CCCCC2)cc1 (single isomer, unassigned)	< 50 nM
Cc1ccc(NC(=O)Nc2cc(C(CC(=O)O)C3CC3)ccc2N(CC(C)C)C2CCOCC2)cc1 (single isomer, unassigned) [1202 E2]	< 5 nM

--- query ---
[Q] Report IC50 under test system UniProt P14902 for CCC(CC(=O)O)c1ccc(N2CCC[C@@H]2C(C)(C)O)c(Nc2ccc(Cl)cc2)c1 (single isomer, unassigned) [Example 783] .
[A] < 5 nM

---

Target: human IDO1 (Homo sapiens)
Assay: Assessment of human IDO-1 inhibitory activity in Hela cells (Interferon-gamma stimulated HeLa cells, Ehrlich reagent, absorbance 490 nm)
Format: cell-based
Design: endogenous in cells; host or cells: HeLa cells stimulated with interferon-gamma
Conditions: Hela Human IDO-1 cellular assay
pIC50: −log10 of the molar value.
Measure: pIC50

Sample records with pIC50:
CCN(c1ccc([C@@H](COC)CC(=O)O)cc1Nc1ccc(C#N)c(C)c1)C1CCOCC1 (single isomer, unassigned) [Example 354]	> 7.30
CCN(c1ccc(C(COC)CC(=O)O)cc1Nc1ccc(Cl)cc1)C1CCS(=O)(=O)CC1 (single isomer, unassigned) [Example 174]	> 7.30
CCCN(c1ccc([C@H](CC)CC(=O)O)cc1Nc1ccc2nc(C)sc2c1)C1CCOCC1 (single isomer, unassigned) [Example 548]	> 7.30
CCC(CC(=O)O)c1ccc(N(CC)C2CCCOC2)c(Nc2cnc(OC)nc2)c1 (single isomer, unassigned) [Example 65]	> 8.30
CCC1COCCN1c1ccc([C@@H](COC)CC(=O)O)cc1Nc1ccc(F)cn1 (single isomer, unassigned) [Example 1302]	< 7.30
CCCN(c1ccc([C@H](CC)CC(=O)O)cc1NC(=O)Nc1ccc(Cl)cc1F)C1CCOCC1 (single isomer, unassigned) [Example 555]	> 8.30

--- query ---
[Q] Using the record for CCC(CC(=O)O)c1cc(F)c(N(CC)C2CCOCC2)c(Nc2ccc(OC)nc2)c1 (single isomer, unassigned) [Example 137] , state its measured pIC50.
[A] > 7.30

---

The following compounds are listed with their measured IC50 values.
Molecular target: human IDO1 (Homo sapiens)
Test: Assessment of human IDO-1 inhibitory activity in Hela cells (Interferon-gamma stimulated HeLa cells, Ehrlich reagent, absorbance 490 nm)
Type: cell-based
Design: endogenous in cells; host or cells: HeLa cells stimulated with interferon-gamma
Conditions: Hela Human IDO-1 cellular assay

Sample records with IC50:
CCC1COCCN1c1ccc([C@H](COC)CC(=O)O)cc1Nc1ccc(C#N)cc1 (single isomer, unassigned) [Example 1303]	< 50 nM
CCN(c1ccc(C(CC(=O)O)C2CC2)cc1Nc1ccc(Cl)cc1)C1CCS(=O)(=O)CC1 (single isomer, unassigned) [Example 339 Enantiomer 1]	< 5 nM

[Q] Using the record for CCCN(c1ccc(C(CC)CC(=O)O)cc1NC(=O)Nc1ccc(C)cc1)C1CCOCC1 (single isomer, unassigned) [Example 557 Enantiomer 2] , state its measured IC50.
[A] < 5 nM

---

The following compounds are listed with their measured IC50 values.
Molecular target: human IDO1 (Homo sapiens, UniProt P14902)
Sequence (P14902 whole entry): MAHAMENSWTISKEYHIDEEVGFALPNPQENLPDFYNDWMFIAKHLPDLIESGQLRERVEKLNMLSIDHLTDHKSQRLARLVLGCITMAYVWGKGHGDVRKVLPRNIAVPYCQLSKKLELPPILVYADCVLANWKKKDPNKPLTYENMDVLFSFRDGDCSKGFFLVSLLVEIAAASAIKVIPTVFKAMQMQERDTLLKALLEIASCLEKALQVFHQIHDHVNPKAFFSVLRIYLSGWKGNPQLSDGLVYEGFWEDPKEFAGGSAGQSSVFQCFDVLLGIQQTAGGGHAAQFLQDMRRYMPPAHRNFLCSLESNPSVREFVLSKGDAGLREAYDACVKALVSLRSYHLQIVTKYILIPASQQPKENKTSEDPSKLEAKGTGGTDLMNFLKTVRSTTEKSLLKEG
Experiment: Assessment of human IDO-1 inhibitory activity in HEK cells (human IDO1/HEK293 cells, kynurenine read-out with Ehrlich reagent, absorbance 490 nm)
Type: cell-based
Set-up: expressed in transfected cells
Settings: HEK Human IDO-1 cellular assay

Sample records with IC50:
CCC(CC(=O)O)c1ccc(N(CC(C)C)C2CCCCC2)c(Nc2ccc3c(c2)OCCO3)c1 (single isomer, unassigned)	< 50 nM
CCCN(c1ccc(C(CC)CC(=O)O)cc1NC(=O)Nc1ccc(OC)cc1F)C1CCOCC1 (racemic)	< 5 nM

--- query ---
[Q] Using the record for CCN(c1ccc([C@@H](COC)CC(=O)O)cc1Nc1cnc(C)nc1)C1CCOCC1 (single isomer, unassigned) , state its measured IC50.
[A] > 50 nM

---

The following molecules are listed with their measured pIC50 values.
Biological target: human IDO1 (Homo sapiens, UniProt P14902)
Assay: Assessment of human IDO-1 inhibitory activity in HEK cells (human IDO1/HEK293 cells, kynurenine read-out with Ehrlich reagent, absorbance 490 nm)
Assay type: cell-based
Design: expressed in transfected cells
Details: HEK Human IDO-1 cellular assay
pIC50: −log10 of the molar value.

Sample records with pIC50:
CCC(CC(=O)O)c1cc(NC(=O)Nc2ccc(C)cc2)c(N(CC(C)C)CC(C)C)cc1F (racemic) [Example 1128]	> 8.30
CCC(CC(=O)O)c1ccc(N(CC(C)C)CC(C)(C)O)c(Nc2ccc(Cl)cc2)c1 (racemic)	> 8.30
CC[C@H](CC(=O)O)c1ccc(N(CC(C)C)C2CCS(=O)(=O)CC2)c(Nc2ccc3sc(C)nc3c2)c1	> 7.30

[Q] Using the record for CCN(c1ccc(C(CC(=O)O)c2ccccc2)cc1Nc1ccc2nc(C)sc2c1)C1CCOCC1 (single isomer, unassigned) , state its measured pIC50.
[A] < 7.30

[Q] Using the record for CCOc1ncc(Nc2cc([C@H](CC)CC(=O)O)ccc2N(CC)C2CCOCC2)cn1 (single isomer, unassigned) , state its measured pIC50.
[A] > 8.30
